Values from PubChem BioAssay (NCI)

System: OVCAR-3 ovarian
assay comment: NCI tumour cell line growth inhibition, 48 h

{"compound": "COc1cc[nH]c1/C=C1\\C(=O)Nc2ccc(F)c(C#CC3(O)CCNCC3)c21", "TGI": "1.55 µM"}
{"compound": "CCN(CC)C(c1ccc(N(C)C)cc1)C(c1ccc(N(C)C)cc1)N(CC)CC (centres undefined)", "TGI": "> 73 µM"}
{"compound": "COc1cc(Nc2nc3ccccc3nc2-c2cccs2)cc(OC)c1OC", "TGI": "> 100 µM"}
{"compound": "O=C1CN(C(=O)C2CCCN2C(=O)C2CCCN2)C(=O)CN1 (centres undefined)", "TGI": "> 100 µM"}
{"compound": "O=C(O)c1nn(-c2ccccc2-c2n[nH]c(=O)[nH]c2=O)c(=O)[nH]c1=O", "TGI": "> 100 µM"}
{"compound": "Cc1ccc(S(=O)(=O)c2ccsc2NC(=O)C(F)(F)F)cc1", "TGI": "> 100 µM"}
{"compound": "COC(=O)Nc1nc2ccc(Oc3ccc(NC(=O)Nc4cc(C(F)(F)F)ccc4F)cc3)cc2s1", "TGI": "> 25 µM"}
{"compound": "COc1cc2ncnc(Nc3cccc(Cl)c3)c2cc1OC", "TGI": "35.8 µM"}
{"compound": "Cc1cc(C)c2c(O)c(S(=O)(=O)c3ccc(Cl)cc3)c(=O)oc2c1", "TGI": "> 100 µM"}
{"compound": "CC1CN1C(=O)NCCCCCCNC(=O)N1CC1C (centres undefined)", "TGI": "> 100 µM"}
{"compound": "O=C(O)CCCn1nnc2c(=O)[nH][nH]c(=O)c21", "TGI": "> 100 µM"}
{"compound": "CC(C)(CO)N1CCN(C(=S)Nc2ccccc2)CC1", "TGI": "> 100 µM"}
{"compound": "CS(=O)(=O)c1ccc(-n2nc(C(F)(F)F)cc2OC2CCCC2)cc1", "TGI": "> 100 µM"}
{"compound": "CN(C)/N=C(/CC(O)(C(F)(F)F)C(F)(F)F)c1ccc([N+](=O)[O-])cc1", "TGI": "> 100 µM"}
{"compound": "CC(C)(C)OC(=O)CN1C(=O)CC1CC(=O)c1ccccc1 (centres undefined)", "TGI": "33.5 µM"}
{"compound": "c1ccc(CCCCNCc2cc(CNCCCCc3ccccc3)cc(CNCCCCc3ccccc3)c2)cc1", "TGI": "2.77 µM"}
{"compound": "Nc1nc2c(nnn2C2CC(O)C(CO)O2)c(=O)[nH]1 (centres undefined)", "TGI": "> 69 µM"}
{"compound": "CCOC(=O)/C(=C\\c1ccccc1)C(=O)O", "TGI": "> 100 µM"}
{"compound": "CC(C)(C)C(=O)OCOP(=O)(OCOC(=O)C(C)(C)C)OCC1OC(n2ccc(=O)[nH]c2=O)C(N=[N+]=[N-])C1O (centres undefined)", "TGI": "3.25 µM"}
{"compound": "Ic1ccc2c(c1)N(c1ccccc1)c1cc(N=c3ccc4nc5ccc(I)cc5n(-c5ccccc5)c-4c3)ccc1N2", "TGI": "16.1 µM"}
{"compound": "CC(C)(C)c1cc(CCC(=O)Nc2ccc(Cl)cc2)nc(NC#N)n1", "TGI": "> 100 µM"}
{"compound": "O=C1N[C@H]2c3c(Cl)sc(Cl)c3[C@@H](O)[C@H]2O1", "TGI": "> 100 µM"}
{"compound": "Nc1c(-c2ccc(Cl)cc2)[n+]([O-])c2ccccc2[n+]1[O-]", "TGI": "> 100 µM"}
{"compound": "CCC/C=C/c1cc2c(cc1O)CC[C@@H]1[C@@H]2CC[C@]2(C)[C@@H](O)CC[C@@H]12", "TGI": "47 µM"}
{"compound": "CCOC(=O)c1oc2cc3c(c4c2c1-c1ccccc1N4C)C=CC(C)(C)O3", "TGI": "45.3 µM"}
{"compound": "COc1ccccc1N(CN1C(=O)CCC1C(=O)O)C(C)=O (centres undefined)", "TGI": "> 100 µM"}
{"compound": "COC1(OC)CC2OC1C1N=NN(C(=O)OC(C)(C)C)C21 (centres undefined)", "TGI": "> 100 µM"}
{"compound": "CC[C@@]1(c2ccccc2)C2=C(CC(C)(C)CC2=O)Nc2[nH]ncc21", "TGI": "> 100 µM"}
{"compound": "CC/C=C\\C[C@@H](O)C/C=C1/C(=O)C=C[C@H]1C/C=C\\CCCC(=O)OC", "TGI": "10.3 µM"}
{"compound": "CC1(C)OC2=C(CC1Br)C(=O)C(=O)c1ccccc12 (centres undefined)", "TGI": "2.98 µM"}
{"compound": "O=C(CC1(O)C(=O)Nc2c(Cl)ccc(Cl)c21)c1ccc(F)cc1 (centres undefined)", "TGI": "> 100 µM"}
{"compound": "Nc1nccc(-c2c(-c3ccc(F)cc3)ncn2C2CCC(O)CC2)n1 (centres undefined)", "TGI": "> 25 µM"}
{"compound": "O=[N+]([O-])c1ccc2c(c1)S(=O)(=O)N1Cc3ccccc3CCN21", "TGI": "> 100 µM"}
{"compound": "O=c1cc(N2CCNCC2)nc2ccccn12", "TGI": "> 100 µM"}
